- Test system: HIV-1 L100I mutant strain
- assay.procedure: microbe, parasite or virus in culture
- Assay type: cell-based
- run.conditions: ratio of EC50 (resistant viral strain)/EC50 (wild-type viral strain)
Under this convention, 1 denotes RF L100I strictly below 3 and -1 denotes RF L100I at or above 3.

stdin: Item COc1ccc(-c2cc(C)c(Oc3nc(NC4CCN(Cc5ccc(C(N)=O)cc5)CC4)nc4ccsc34)c(C)c2)cc1 [Compound 22] : RF L100I beneath 3, strictly?
stdout: -1

stdin: Regarding Cc1cc(-c2ccsc2)cc(C)c1Oc1nc(NC2CCN(Cc3ccc(S(N)(=O)=O)cc3)CC2)nc2ccsc12 [Compound 17] , kindly confirm whether its RF L100I is beneath 3.
stdout: 1

stdin: Hi there! Is RF L100I for Cc1cc(-c2ccoc2)cc(C)c1Oc1nc(NC2CCN(Cc3ccc(S(N)(=O)=O)cc3)CC2)nc2ccsc12 [Compound 13] below 3, do you know?
stdout: 1

stdin: Consider Cc1cc(C#N)cc(C)c1Oc1nc(Nc2ccc(C#N)cc2)nc(N)c1Br [ETR, Etravirine, reference compound] . Does its RF L100I lie strictly below 3?
stdout: 1

stdin: Here's an entry: Cc1cc(-c2ccsc2)cc(C)c1Oc1nc(NC2CCN(Cc3ccc(C(N)=O)cc3)CC2)nc2ccsc12 [Compound 18] . Is its RF L100I below 3?
stdout: -1

stdin: Is RF L100I strictly under 3 for the entry Cc1cc(-c2ccco2)cc(C)c1Oc1nc(NC2CCN(Cc3ccc(C(N)=O)cc3)CC2)nc2ccsc12 [Compound 12] ?
stdout: -1

stdin: Is RF L100I strictly under 3 for the entry COc1ccc(-c2cc(C)c(Oc3nc(NC4CCN(Cc5ccc(S(N)(=O)=O)cc5)CC4)nc4ccsc34)c(C)c2)cc1 [Compound 21] ?
stdout: 1

stdin: Quick check: does Cc1cc(-c2ccoc2)cc(C)c1Oc1nc(NC2CCN(Cc3ccc(C(N)=O)cc3)CC2)nc2ccsc12 [Compound 14] have RF L100I under 3?
stdout: -1

stdin: Strictly below 3: is that where RF L100I of Cc1cc(-c2cccc(N(C)C)c2)cc(C)c1Oc1nc(NC2CCN(Cc3ccc(C(N)=O)cc3)CC2)nc2ccsc12 [Compound 32] sits?
stdout: -1

stdin: Lab note: RF L100I threshold 3. Does this compound come in strictly under it? Cc1cc(-c2ccc(N(C)C)cc2)cc(C)c1Oc1nc(NC2CCN(Cc3ccc(C(N)=O)cc3)CC2)nc2ccsc12 [Compound 30]
stdout: -1

stdin: Lab log: compare recorded RF L100I with 3; is it strictly lower for Cc1cc(-c2ccc(F)cc2)cc(C)c1Oc1nc(NC2CCN(Cc3ccc(C(N)=O)cc3)CC2)nc2ccsc12 [Compound 24] ?
stdout: -1

stdin: Dear colleague, could you confirm whether RF L100I of Cc1cc(-c2ccco2)cc(C)c1Oc1nc(NC2CCN(Cc3ccc(S(N)(=O)=O)cc3)CC2)nc2ccsc12 [Compound 11] falls below 3? Thanks.
stdout: -1

stdin: Input Cc1cc(-c2cccc(C#N)c2)cc(C)c1Oc1nc(NC2CCN(Cc3ccc(S(N)(=O)=O)cc3)CC2)nc2ccsc12 [Compound 27] ; condition: RF L100I strictly below 3. Does it hold?
stdout: 1

stdin: Consider the compound Cc1cc(-c2ccc(F)cc2)cc(C)c1Oc1nc(NC2CCN(Cc3ccc(S(N)(=O)=O)cc3)CC2)nc2ccsc12 [Compound 23] . Is its RF L100I strictly less than 3?
stdout: -1

stdin: Field: below-cutoff. Rule: recorded RF L100I strictly less than 3. Subject: Cc1cc(-c2ccc(N(C)C)cc2)cc(C)c1Oc1nc(NC2CCN(Cc3ccc(S(N)(=O)=O)cc3)CC2)nc2ccsc12 [Compound 29]
stdout: -1

stdin: Input Cc1cc(-c2ccccc2)cc(C)c1Oc1nc(NC2CCN(Cc3ccc(S(N)(=O)=O)cc3)CC2)nc2ccsc12 [Compound 19] ; condition: RF L100I strictly below 3. Does it hold?
stdout: -1

Where these numbers come from: paper PMC7280082
